Please go through the items and note down their PBM binding z-score.
Test system: PPARg:RXRa IVT, anti-PPARg (NR concentration 270 nM, RXRa partner concentration 90 nM)
Experiment: PBM binding z-score (relative to random genomic background probes); higher = stronger binding; sequences stand for … in GC…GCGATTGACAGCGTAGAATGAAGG

Hi there! I need PBM binding z-score for each item below, if you can.
1. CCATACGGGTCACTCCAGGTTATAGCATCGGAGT
2. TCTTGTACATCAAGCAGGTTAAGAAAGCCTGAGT
3. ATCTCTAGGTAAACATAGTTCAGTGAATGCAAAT
4. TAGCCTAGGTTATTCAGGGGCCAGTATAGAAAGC

Result:
1. 3.66
2. 0.61
3. 2.59
4. 0.703

Hi there! I need PBM binding z-score for each item below, if you can.
1. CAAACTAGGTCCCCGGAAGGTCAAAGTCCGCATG
2. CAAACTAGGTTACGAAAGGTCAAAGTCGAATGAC

Result:
[4.13, 7.68]

----------
Test system: PXR homodimer (NR concentration 270 nM)
Experiment: PBM binding z-score (relative to random genomic background probes); higher = stronger binding; sequences stand for … in GC…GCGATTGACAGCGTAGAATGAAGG
readout: PBM binding z-score

Examples with their reported PBM binding z-score follow.
• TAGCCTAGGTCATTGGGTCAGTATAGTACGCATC = 0.622
• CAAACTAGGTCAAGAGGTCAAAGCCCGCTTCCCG = 1.66
• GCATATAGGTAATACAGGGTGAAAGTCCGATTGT = 0.164
• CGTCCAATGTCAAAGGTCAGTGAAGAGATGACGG = 0.54
• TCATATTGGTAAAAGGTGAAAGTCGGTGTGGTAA = 0.68

Consider the record given below.
Problem: Reported PBM binding z-score for CCAGACAGGTGAGAGGTAACTCAGTCTGGTACGC : what is it?
Result: -0.224

----------
Tested on: THRa homodimer (NR concentration 90 nM)
Experiment: PBM binding z-score (relative to random genomic background probes); higher = stronger binding; sequences stand for … in GC…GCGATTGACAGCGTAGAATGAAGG
Each entry belongs to exactly one class, chosen by where its PBM binding z-score falls: category 1 (below 0.2), category 2 (0.2 to below 0.7), category 3 (0.7 or more)

* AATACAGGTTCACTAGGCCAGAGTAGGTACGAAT | category 2
* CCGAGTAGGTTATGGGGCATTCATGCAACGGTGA | category 1
* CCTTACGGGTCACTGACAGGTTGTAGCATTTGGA | category 1
* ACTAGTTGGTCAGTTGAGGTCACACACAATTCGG | category 3
* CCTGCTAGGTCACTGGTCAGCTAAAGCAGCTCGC | category 3

Problem: Sort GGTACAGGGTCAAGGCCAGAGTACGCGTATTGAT into one of the categories.
Result: category 3

Problem: Then this sequence: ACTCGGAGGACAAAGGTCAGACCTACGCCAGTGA
Result: category 2

Problem: Then this sequence: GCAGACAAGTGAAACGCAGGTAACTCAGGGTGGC
Result: category 1

Problem: Then this sequence: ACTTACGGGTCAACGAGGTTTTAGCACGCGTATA
Result: category 2

Problem: Then this sequence: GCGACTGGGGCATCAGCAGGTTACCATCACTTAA
Result: category 1

Problem: Then this sequence: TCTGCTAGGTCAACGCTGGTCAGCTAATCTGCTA
Result: category 2

Problem: Then this sequence: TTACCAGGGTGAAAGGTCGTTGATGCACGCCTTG
Result: category 2

----------
Tested on: LXRa homodimer (NR concentration 270 nM)
Assay: PBM binding z-score (relative to random genomic background probes); higher = stronger binding; sequences stand for … in GC…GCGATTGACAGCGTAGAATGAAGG
Each entry belongs to exactly one class, chosen by where its PBM binding z-score falls: bin 1 (below -0.3), bin 2 (-0.3 to below 0.1), bin 3 (0.1 or more)

The following sequences have reported results that may help.
• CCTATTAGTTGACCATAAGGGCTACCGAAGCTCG = bin 3
• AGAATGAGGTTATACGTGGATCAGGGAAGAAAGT = bin 3
• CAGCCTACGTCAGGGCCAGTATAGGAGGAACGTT = bin 1
• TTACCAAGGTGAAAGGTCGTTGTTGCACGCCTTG = bin 3
• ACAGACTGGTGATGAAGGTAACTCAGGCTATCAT = bin 1
• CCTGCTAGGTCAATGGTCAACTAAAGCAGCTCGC = bin 2
• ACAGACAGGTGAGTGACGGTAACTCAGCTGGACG = bin 1
• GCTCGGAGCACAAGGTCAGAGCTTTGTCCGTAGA = bin 1
• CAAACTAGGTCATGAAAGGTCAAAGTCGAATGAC = bin 3
• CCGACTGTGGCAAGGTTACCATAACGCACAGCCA = bin 2

Problem: Sort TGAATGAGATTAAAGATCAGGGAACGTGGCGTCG into one of the categories.
Result: bin 1

Problem: Then this sequence: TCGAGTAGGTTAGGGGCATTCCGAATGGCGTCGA
Result: bin 2

----------
Tested on: RARg homodimer (NR concentration 270 nM)
Experiment: PBM binding z-score (relative to random genomic background probes); higher = stronger binding; sequences stand for … in GC…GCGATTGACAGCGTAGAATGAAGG
Each entry belongs to exactly one class, chosen by where its PBM binding z-score falls: group A = under 0.6, group B = from 0.6 up to 3, group C = 3 and over

* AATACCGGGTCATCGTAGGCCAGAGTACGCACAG | group C

Pending sequence:
Problem: Sort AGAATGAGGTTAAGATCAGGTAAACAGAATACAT into one of the categories.
Result: group B

----------
Test system: PPARa:RXRa (NR concentration 270 nM, RXRa partner concentration 90 nM)
Test: PBM binding z-score (relative to random genomic background probes); higher = stronger binding; sequences stand for … in GC…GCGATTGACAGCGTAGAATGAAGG
readout: PBM binding z-score
One number for each entry.

Examples with their reported PBM binding z-score follow.
- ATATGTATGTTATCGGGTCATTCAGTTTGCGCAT: 3.32
- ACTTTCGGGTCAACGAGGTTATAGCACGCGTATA: 5.52
- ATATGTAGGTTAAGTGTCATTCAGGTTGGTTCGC: 4.74
- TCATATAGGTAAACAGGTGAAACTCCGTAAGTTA: 2.64
- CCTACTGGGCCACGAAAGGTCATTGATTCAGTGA: 4.58
- GCGACTGGGGCATCAGCCGGTTACCATAACTTAA: 0.18
- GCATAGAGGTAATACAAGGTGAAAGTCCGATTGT: 1.51
- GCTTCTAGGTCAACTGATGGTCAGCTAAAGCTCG: 4.69

Hi there! I need PBM binding z-score for each item below, if you can.
1. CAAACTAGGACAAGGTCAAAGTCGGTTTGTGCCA
2. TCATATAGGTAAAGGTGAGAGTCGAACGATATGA
3. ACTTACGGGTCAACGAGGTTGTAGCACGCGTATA
4. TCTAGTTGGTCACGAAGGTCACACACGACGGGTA
5. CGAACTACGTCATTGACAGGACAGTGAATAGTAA

Result:
1. 5.05
2. 2.5
3. 5.6
4. 3.71
5. -0.47

----------
System: VDR:RXRa (NR concentration 270 nM, RXRa partner concentration 90 nM)
Test: PBM binding z-score (relative to random genomic background probes); higher = stronger binding; sequences stand for … in GC…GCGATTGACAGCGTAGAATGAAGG
readout: PBM binding z-score
Answers are plain numbers.

Examples with their reported PBM binding z-score follow.
• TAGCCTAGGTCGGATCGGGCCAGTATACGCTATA = -0.475
• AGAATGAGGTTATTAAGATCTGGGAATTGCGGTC = 1.33
• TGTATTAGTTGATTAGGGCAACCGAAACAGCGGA = 0.00753
• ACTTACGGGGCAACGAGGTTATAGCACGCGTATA = 5.28
• ACTATTAGTGGAGACGAGGGCAACCGATAGGTTG = 0.101
• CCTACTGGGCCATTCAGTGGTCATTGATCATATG = -0.487

Hi there! I need PBM binding z-score for each item below, if you can.
1. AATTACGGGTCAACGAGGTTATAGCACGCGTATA
2. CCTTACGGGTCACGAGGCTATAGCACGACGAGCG
3. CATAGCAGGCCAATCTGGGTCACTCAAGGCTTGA
4. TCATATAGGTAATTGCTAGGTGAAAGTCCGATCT
5. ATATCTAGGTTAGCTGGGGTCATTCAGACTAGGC
6. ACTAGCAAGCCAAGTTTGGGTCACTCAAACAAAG

Result:
[7.73, 3.93, 0.95, 0.884, 6.03, 0.188]
